Entries and their relative binding affinity values follow.
Biological target: T1, human CD81 mutant I194A (human, UniProt P60033 1-236, limits assumed)
T1 construct: as m30; not shown: C-terminal V5 and 6xHis tags
T1 sequence: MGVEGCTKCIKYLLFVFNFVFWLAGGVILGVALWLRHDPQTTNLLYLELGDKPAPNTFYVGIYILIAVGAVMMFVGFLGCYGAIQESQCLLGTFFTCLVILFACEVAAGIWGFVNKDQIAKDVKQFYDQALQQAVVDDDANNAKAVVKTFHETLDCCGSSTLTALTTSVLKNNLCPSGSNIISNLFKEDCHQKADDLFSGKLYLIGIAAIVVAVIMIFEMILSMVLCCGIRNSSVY
Test: ELISA

- binder: "002-F01 (antibody, human IgG4 S228P, lambda, V domains shown, IgG4 S228P) VH: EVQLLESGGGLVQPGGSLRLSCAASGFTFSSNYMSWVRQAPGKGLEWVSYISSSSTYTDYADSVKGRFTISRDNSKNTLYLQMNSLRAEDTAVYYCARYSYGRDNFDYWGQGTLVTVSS VL: QSVLTQPPSASGTPGQRVTISCTGSTSNIGAGYDTHWYQQLPGTAPKLLIYGNSNRPSGVPDRFSGSKSGTSASLAISGLRSEDEADYYCQSYDTNLSAWVFGGGTKLTVLG"
  quantity: "relative binding affinity"
  result: "< 20%"
- binder: "002-A07 S115G (antibody, human IgG4 S228P, lambda, V domains shown, IgG4 S228P; glycosylation site mutant of 002-A07 VL) VH: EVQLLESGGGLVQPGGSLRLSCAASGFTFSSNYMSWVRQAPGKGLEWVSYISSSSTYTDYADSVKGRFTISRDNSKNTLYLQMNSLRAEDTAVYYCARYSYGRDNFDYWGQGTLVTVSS VL: QSVLTQPPSASGTPGQRVTISCTGSTSNIGAGYDTHWYQQLPGTAPKLLIYGNSNRPSGVPDRFSGSKSGTSASLAISGLRSEDEADYYCQSYDTNLGVWVFGGGTKLTVLG"
  quantity: "relative binding affinity"
  result: "< 20%"

# ---- query binder ----
Data request: Quick one: relative binding affinity of 002-A07 N113G (antibody, human IgG4 S228P, lambda, V domains shown, IgG4 S228P; glycosylation site mutant of 002-A07 VL) VH: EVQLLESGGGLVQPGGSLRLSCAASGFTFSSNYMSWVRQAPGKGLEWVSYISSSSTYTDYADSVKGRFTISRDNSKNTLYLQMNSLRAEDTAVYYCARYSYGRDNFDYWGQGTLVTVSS VL: QSVLTQPPSASGTPGQRVTISCTGSTSNIGAGYDTHWYQQLPGTAPKLLIYGNSNRPSGVPDRFSGSKSGTSASLAISGLRSEDEADYYCQSYDTGLSVWVFGGGTKLTVLG ?
Data returned: < 20%

The values you see were collected from patent US20150139990A1.
